test: background-corrected fluorescence of 3'-dye-labeled ssDNA relative to brightest sequence (3'-GCGCG) (fraction); higher = brighter dye fluorescence (less quenching); settings: dye: Cy3 (3' terminal)
Label rule met when background-corrected fluorescence >= 0.6; otherwise rule not met.

Past entries and their recorded results:
| entry sequence | label value |
| --- | --- |
| TTTTTTGATGCGCATGCTCATTTTTTTTTTTTTTTCATAG [GATAC] | rule not met |
| TTTTTTGCTCATCATGCGCATTTTTTTTTTTTTTTAGGAT | rule met |
| TTTTTTGATGCTCAGCATGATTTTTTTTTTTTTTTCAGTC [CTGAC] | rule not met |
| TTTTTGCATGCTGCGCATCATTTTTTTTTTTTTTTTAATG [GTAAT] | rule not met |
| TTTTTTGAGCATCATGATGCTTTTTTTTTTTTTTTCTGCA [ACGTC] | rule not met |

Does background-corrected fluorescence meet or surpass 0.6 for TTTTTTGCTCAGCATGATGCTTTTTTTTTTTTTTTAGTCA [ACTGA] ? rule not met

Field entry: TTTTTGCATGCTCATCAGCATTTTTTTTTTTTTTTTAGGT [TGGAT] rule met

Field entry: TTTTTTGCTGATCATCAGCATTTTTTTTTTTTTTTACGGT [TGGCA] rule met

Field entry: TTTTTTGCTGCTCATCATGATTTTTTTTTTTTTTTAAGGC [CGGAA] rule met

Field entry: TTTTTGCATGCTGCTCATGCTTTTTTTTTTTTTTTTAAGA [AGAAT] rule met

Field entry: `TTTTTTGATCAGCATCATGATTTTTTTTTTTTTTTCGTGC` rule not met

Field entry: TTTTTTCATGATGATCATCATTTTTTTTTTTTTTTGCCGG [GGCCG] rule met

Field entry: `TTTTTTGCTGATGATGCGCATTTTTTTTTTTTTTTACCAT` rule not met

* * *

test: background-corrected fluorescence of 3'-dye-labeled ssDNA relative to brightest sequence (3'-GCGCG) (fraction); higher = brighter dye fluorescence (less quenching); details: dye: Cy3 (3' terminal)
Entries annotated with measured background-corrected fluorescence
Please reply with the value in numeric form only.

The cases that follow already have their background-corrected fluorescence on record.
| entry sequence | background-corrected fluorescence |
| --- | --- |
| TTTTTTGATGAGCAGCATGCTTTTTTTTTTTTTTTCCTTA [ATTCC] | 0.513 |
| TTTTTGCATGCTCAGCATGATTTTTTTTTTTTTTTTAGTC [CTGAT] | 0.492 |
| TTTTTTCAGCATGCGCAGCATTTTTTTTTTTTTTTGTATT [TTATG] | 0.5 |
| TTTTTTGATGCTGAGCATCATTTTTTTTTTTTTTTCACTG [GTCAC] | 0.487 |

Here's the next entry for you.
Entry TTTTTTGCTCATGATGATGCTTTTTTTTTTTTTTTAGCCA [ACCGA] : reported background-corrected fluorescence = ? 0.5

* * *

assay: background-corrected fluorescence of 3'-dye-labeled ssDNA relative to brightest sequence (3'-GCGCG) (fraction); higher = brighter dye fluorescence (less quenching); conditions: dye: Cy5 (3' terminal)
Entries annotated with measured background-corrected fluorescence

The cases that follow already have their background-corrected fluorescence on record.
| entry sequence | observed |
| --- | --- |
| TTTTTGCATGCTGAGCAGCATTTTTTTTTTTTTTTTACTT [TTCAT] | 0.358 |
| TTTTTTCATGATGAGCATCATTTTTTTTTTTTTTTGCCTG [GTCCG] | 0.35 |
| TTTTTTGCTCATGCTGATGATTTTTTTTTTTTTTTAGACC [CCAGA] | 0.331 |
| TTTTTTGATGAGCAGCATGATTTTTTTTTTTTTTTCCTTC [CTTCC] | 0.288 |
| TTTTTGCAGCAGCATCATGCTTTTTTTTTTTTTTTTTTGA [AGTTT] | 0.524 |

Entry TTTTTGCATGATCATGATCATTTTTTTTTTTTTTTTCGCG [GCGCT] : reported background-corrected fluorescence = ? 0.964

Field entry: TTTTTTCATGCTCATGATGCTTTTTTTTTTTTTTTGAGCA [ACGAG] 0.43

Data provenance is the supplement of paper PMC9428881.
